ASSAY_COMMENT: yeast display, Sf9 membrane polyspecificity reagent, FACS + sequencing; frameworks hold sequencing errors
EXPERIMENTAL_READOUT: polyreactivity (PSR sort gate)

- INPUT_SEQUENCE: "QVQLVESGGGLVQAGGSLRLSCAASGITFQRYAMGWYRQAPGKERELVAAITRGGSTNYADSVKGRFTISRDNAKNTVYLQMNSLKPEDTAVYYCAAGYKITSVYGFYYWGQGTQVTVSS"
  polyreactivity (PSR sort gate): "high polyreactivity"
- INPUT_SEQUENCE: "QVQLVESGGGLVQAGGSLRLSCAASGRTFYSYVMGWYRQAPGKEREFVADISQSGGRTFYSDSVKGRFTISRDNAKNTVYLQMNSLKPEDTAVYYCAAAKRGSYARGYYWGQGTQVTVSS"
  polyreactivity (PSR sort gate): "low polyreactivity"
- INPUT_SEQUENCE: "QVQLVESGGGLVQAGGSLRLSCAASGSIFTYNVMGWYRHAPGKERELVAAIRTRGDRTYYADSVKGRFTISRDNAKNTVYLQMNSLKPDDTAVYYCAAAGSYYSHEYWGQGTQVTVSS"
  polyreactivity (PSR sort gate): "high polyreactivity"
- INPUT_SEQUENCE: "QVQHVESGGGLVQAGGSLRLSCAASGYIFSRYMGWYRQAPGKERQLVAAITRGGVSTYYADSVKGRFTISRDNAKNTVYLQMNSLKPEDTAVYYCATGRPVYYVASYDYDYWGQGTQVTVSS"
  polyreactivity (PSR sort gate): "low polyreactivity"
- INPUT_SEQUENCE: "QVQLVESGGGLVQAGGRLRLICAASGFIFWKNAMGWYRQSPGKQRELVAAISTRGGSTYYADSVKGRFTISRDNAKNSVYLQMNSLKPEDTAVYYCNKEWYQYKHNYWGQGTQVSVSS"
  polyreactivity (PSR sort gate): "low polyreactivity"

Annotate the sequence QVQLVESGGGLVQAGGSLRLSCAASGFTFRDYAMGWYRQAPGQERELVATITWRVGSTFYADSVKGRFTISRDNAKNTVYLQMNTLKPEDTADDYCAARWSTSYGPFDYWGQGTQVTVSS with its measured polyreactivity (PSR sort gate). low polyreactivity

Annotate the sequence QVQLVESGGGLVQAGGSLRLSCASSGYIFAGNAMGWYRQAPGKERELVAVITRGGRTYYADSVKGRFTISRDNAKNTVYLQMNSLKPEDTAVYYCAARYPYRGWGQGTQVTVSS with its measured polyreactivity (PSR sort gate). high polyreactivity

Annotate the sequence QVQLVESGGGLVQAGGSLRLSCAASGRIFANYAMGWYRQAPGKERELVAAISRSGGSTSYADSVKGRFTISRDNAKNTVYLQMNSLKPEDTAVYYCAATRSRYQPVKYGYWGQGTQVTVSS with its measured polyreactivity (PSR sort gate). high polyreactivity

Annotate the sequence QVQLVESGGGLVQAGGSLRLSCAASGFSFTRYAMGWYRQAPGKERELVAAIYIGGSTYYADSVKGRFTISRDNAKNTVYFQMNSQKPEDTAVYYCAVDYRHSSSWNAGPWEMYYWGQGTKVTVSS with its measured polyreactivity (PSR sort gate). low polyreactivity

Annotate the sequence QVQLVESGGGLVQAGGSLRLSCAASGGIFFRNDMGWYRQAPGKERELVAAISSNGGSTYYADSVKGRFTISRDNAKNTVYLQMNSLKPEDTAVYYCNTGVYSSGGPLDYWGQGTQVTVSS with its measured polyreactivity (PSR sort gate). low polyreactivity

Annotate the sequence QVHLVESGGGLVQAGGSLRLICAASGFTFAVYAMGWYRQAPGKERELVAAISRSSGRTYYADSVKGRFTISRDNAKNTVYLQMNSLKPEDTAVYYCNARRGSPAPYDYWGQGTQVTVSS with its measured polyreactivity (PSR sort gate). high polyreactivity
